# target.entity: Rat recombinant PDE10A (rPDE10A2) (Rattus norvegicus, UniProt Q9QYJ6)
# Construct: made in house; host or cells: Sf9 insect cells, baculovirus
# experimental.details: In vitro assay PDE10A (SPA, 3H-cAMP)
# Type: biochemical
# run.parameters: pIC50 corresponds to the -log IC50 expressed in mol/L; read-out: PDE10A2 pIC50 (converted)
For each entry below, report its IC50 value.
One number for each entry, in nM.

Some solved cases for reference:
>  <compound>
COC(C)CCn1cc(-c2c(C)nc3c(N4CCOCC4)nccn23)cn1 (single isomer, unassigned) [compound 84]

>  <IC50, nM>
117

$$$$
>  <compound>
Cc1nc2c(N3CCOCC3)nccn2c1-c1ccc(N2CCOCC2)nc1 [compound 4]

>  <IC50, nM>
141

$$$$
>  <compound>
COC(C)(C)COc1ccc(-c2c(C3CC3)nc3c(N4CCOCC4)nccn23)cn1 [compound 105]

>  <IC50, nM>
174

$$$$
>  <compound>
COCCOc1ccc(-c2c(C)nc3c(-c4ccncc4)nccn23)cn1 [compound 132]

>  <IC50, nM>
537

$$$$
>  <compound>
Cc1nc2c(N3CCOCC3)nccn2c1-c1ccnc(OC(C)C)c1 [compound 113]

>  <IC50, nM>
251

$$$$
>  <compound>
Cc1nc2c(-c3ccncc3)nccn2c1-c1ccc(N2CCOCC2)nc1 [compound 115]

>  <IC50, nM>
263

$$$$
>  <compound>
Cc1nc2c(N3CCOCC3)nccn2c1-c1cnn(C2CCOC2)c1 (single isomer, unassigned) [compound 88]

>  <IC50, nM>
132

$$$$

## Input Given the compound Cc1nc2c(N3CCOCC3)nccn2c1-c1cnn(CC2CCCCO2)c1 (single isomer, unassigned) [compound 58] , write its reported IC50.
## Output 67.6

* * *

Record form. Attribute: ED50. Fill in for each entry.
# Tested on: apomorphine-induced stereotypy
# experimental.details: Apomorphine-induced stereotypy in rats (APO)
# Format: in vivo
# run.parameters: Rattus norvegicus, po; * compound was not soluble and was tested orally as a suspension; read-out: APO ED50
One number for each entry, in mg/kg.

Record excerpt, results attached:
>  <compound.smiles>
COCCOc1ccc(-c2c(C)nc3c(N4CCOCC4)nccn23)cn1

>  <target.entity>
apomorphine-induced stereotypy

>  <unit.of.measure>
mg/kg

>  <ED50>
0.8

$$$$
>  <compound.smiles>
FC(F)(F)Cn1cc(-c2c(C3CC3)nc3c(N4CCOCC4)nccn23)cn1

>  <target.entity>
apomorphine-induced stereotypy

>  <unit.of.measure>
mg/kg

>  <ED50>
5

$$$$
>  <compound.smiles>
Cc1nc2c(-c3ccncc3)nccn2c1-c1cnn(CC(F)(F)F)c1

>  <target.entity>
apomorphine-induced stereotypy

>  <unit.of.measure>
mg/kg

>  <ED50>
3.1

$$$$

Take each entry in turn and give its ED50.
1. COCCn1cc(-c2c(C)nc3c(-c4ccncc4)nccn23)cn1
2. Cc1nc2c(N3CCOCC3)nccn2c1-c1ccc(C2CC2)nc1
3. FC(F)(F)Cn1cc(-c2c(C3CC3)nc3c(-c4ccncc4)nccn23)cn1
4. Cc1nc2c(N3CCOCC3)nccn2c1-c1cnn(CC(F)F)c1

## Output
1.2
1.2
3.1
3.1

* * *

# target.entity: Rat recombinant PDE10A (rPDE10A2) (Rattus norvegicus)
# Construct: made in house; host or cells: Sf9 insect cells, baculovirus
# Sequence (Q9QYJ6 1-794): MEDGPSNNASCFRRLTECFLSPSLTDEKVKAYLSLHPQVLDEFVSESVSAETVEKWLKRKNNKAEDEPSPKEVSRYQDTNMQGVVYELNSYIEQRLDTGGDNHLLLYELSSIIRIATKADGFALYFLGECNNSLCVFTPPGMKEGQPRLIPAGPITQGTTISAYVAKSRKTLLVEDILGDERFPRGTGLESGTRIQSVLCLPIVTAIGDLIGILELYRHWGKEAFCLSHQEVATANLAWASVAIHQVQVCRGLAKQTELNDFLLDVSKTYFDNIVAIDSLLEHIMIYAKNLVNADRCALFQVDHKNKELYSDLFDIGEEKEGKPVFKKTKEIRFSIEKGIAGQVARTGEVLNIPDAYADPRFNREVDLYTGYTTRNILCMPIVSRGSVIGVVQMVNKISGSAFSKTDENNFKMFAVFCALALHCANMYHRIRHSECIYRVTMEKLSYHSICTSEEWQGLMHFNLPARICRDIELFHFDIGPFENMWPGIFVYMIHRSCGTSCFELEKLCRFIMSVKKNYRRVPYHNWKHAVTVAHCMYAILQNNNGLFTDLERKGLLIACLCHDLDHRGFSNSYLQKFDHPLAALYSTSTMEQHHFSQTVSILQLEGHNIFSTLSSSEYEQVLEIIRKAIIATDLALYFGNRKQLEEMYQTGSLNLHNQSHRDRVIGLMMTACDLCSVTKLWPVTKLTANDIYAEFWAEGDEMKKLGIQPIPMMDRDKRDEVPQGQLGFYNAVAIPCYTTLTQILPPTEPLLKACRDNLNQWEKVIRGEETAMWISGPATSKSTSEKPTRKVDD
# experimental.details: In vitro assay PDE10A (SPA, 3H-cAMP)
# Format: biochemical
# run.parameters: pIC50 corresponds to the -log IC50 expressed in mol/L; read-out: PDE10A2 pIC50 (converted)
just bin them by IC50: range 1 = under 100 nM, range 2 = from 100 nM up to 500 nM, range 3 = 500 nM and over

>  <compound>
CO[C@@H](C)Cn1cc(-c2c(C)nc3c(-c4ccncc4)nccn23)cn1

>  <assigned.class>
range 2

$$$$

## Input Each compound maps to one class by IC50. Which class for `COCCn1cc(-c2c(C)nc3c(-c4ccncc4)nccn23)cn1` ?
## Output range 2

## Input Categorize the following entry: `CCc1ccc(-c2c(C3CC3)nc3c(N4CCOCC4)nccn23)cn1`
## Output range 1

## Input Which category fits this record: `CCOCCn1cc(-c2c(C)nc3c(N4CCOCC4)nccn23)cn1`
## Output range 2

## Input Record `Cc1nc2c(N3CCOCC3)nccn2c1-c1cnn(Cc2cccnc2)c1` — which class?
## Output range 1

## Input State the band of `Cc1nc2c(N3CCOCC3)nccn2c1-c1cc[nH]c1`
## Output range 3

## Input Which class is correct for the following compound? `COC(C)(C)COc1ccc(-c2c(C)nc3c(N4CCOCC4)nccn23)cn1`
## Output range 2

## Input Tag the class for `Cc1nc2c(-c3ccncc3)nccn2c1-c1cnn(CC(C)C)c1`
## Output range 1

## Input Form: Item = `Cc1nc2c(N3CCOCC3)nccn2c1-c1ccnc(N2CCOCC2)c1` ; Class = ?
## Output range 2

## Input Please classify: `COc1ncc(-c2c(C)nc3c(N4CCOCC4)nccn23)cn1`
## Output range 2

## Input Category of `Cc1nc2c(N3CCOCC3)nccn2c1-c1ccnc(N2CCCC2)c1` :
## Output range 2

## Input Into which bin does this compound go? `COC(C)(C)Cn1cc(-c2c(C3CC3)nc3c(-c4ccncc4)nccn23)cn1`
## Output range 1

## Input Into which bin does this compound go? `Cc1nc2c(N3CCOCC3)nccn2c1-c1ccc(-c2ccc(F)cc2)nc1`
## Output range 3

## Input Please let me know in which category the item `c1cn2c(-c3ccc(N4CCOCC4)nc3)c(C3CC3)nc2c(N2CCOCC2)n1` belongs.
## Output range 1

## Input Tag the class for `COCCn1cc(-c2c(OC)nc3c(N4CCCC4)nccn23)cn1`
## Output range 3

## Input Class for Cc1nc2c(-c3ccncc3)nccn2c1-c1cnn(CC2CCCCO2)c1 (single isomer, unassigned) [compound 92] ?
## Output range 2

* * *

# target.entity: Rat recombinant PDE10A (rPDE10A2) (Rattus norvegicus)
# Construct: made in house; host or cells: Sf9 insect cells, baculovirus
# experimental.details: In vitro assay PDE10A (SPA, 3H-cAMP)
# Type: biochemical
# run.parameters: pIC50 corresponds to the -log IC50 expressed in mol/L; read-out: PDE10A2 pIC50 (converted)
Can you tell me IC50 for the items I'm about to list?
Form entry: enter the amount, then its unit.

Worked examples, 3 compounds total:
>  <compound>
Cc1nc2c(N3CCOCC3)nccn2c1-c1cnc(N2CCOCC2)nc1 [compound 85]

>  <measurement.label>
IC50

>  <reported>
120 nM

$$$$
>  <compound>
COCCc1ncc(-c2c(C)nc3c(N4CCOCC4)nccn23)cc1F [compound 17]

>  <measurement.label>
IC50

>  <reported>
275 nM

$$$$
>  <compound>
Cc1nc2c(N3CCOCC3)nccn2c1-c1ccnc(CC(C)C)c1 [compound 27]

>  <measurement.label>
IC50

>  <reported>
74.1 nM

$$$$

## Input Look up and state reported IC50 for COC(Cn1cc(-c2c(C)nc3c(N4CCOCC4)nccn23)cn1)C(C)C (single isomer, unassigned) [compound 59]
## Output 74.1 nM
